Hey, just so you know, these numbers are from patent US20210214440A1.

// values below are reported Cell Binding to Human PanT Signal/Background (of CD4 negative population)
- testTarget: T1, human CD8 on human pan T cells (human, UniProt P01732 22-235; P10966 22-210)
- T1 construct: Native CD8 on the CD4-negative population of human pan T cells
- T1 sequence (P01732 22-235, chain 1 of 2): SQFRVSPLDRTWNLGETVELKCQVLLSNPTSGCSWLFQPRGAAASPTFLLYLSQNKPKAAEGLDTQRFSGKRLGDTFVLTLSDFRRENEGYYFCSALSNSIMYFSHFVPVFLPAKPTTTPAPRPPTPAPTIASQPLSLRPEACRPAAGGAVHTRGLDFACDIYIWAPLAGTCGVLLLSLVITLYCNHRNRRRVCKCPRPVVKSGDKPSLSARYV
- T1 sequence (P10966 22-210, chain 2 of 2): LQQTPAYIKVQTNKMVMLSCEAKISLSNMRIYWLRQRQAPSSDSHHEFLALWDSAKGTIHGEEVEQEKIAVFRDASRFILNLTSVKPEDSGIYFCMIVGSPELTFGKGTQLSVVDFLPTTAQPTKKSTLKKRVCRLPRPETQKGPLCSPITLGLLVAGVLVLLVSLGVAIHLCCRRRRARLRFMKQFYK
- methodNotes: flow cytometry, 20 nM mAb on human pan T cells
measurementKind: Cell Binding to Human PanT Signal/Background (of CD4 negative population)

binder: CD8B192 (antibody, human IgG1, kappa, V domains shown, full-length human IgG1, kappa) VH: QVQLQQSGPVLVKPGASVKMSCKASGYTFTDYYMNWVMQSHGKSLEWIGVINPYNGGTTYNQRFTGKATLTVDKSSSTAYMELNSLTSEDSAVYYCARNYGAMDSWGQGTSVTVSS VL: DIQMTQSPASLSASVGETVTITCRASGNIHNYLAWYQQKQGKSPQLLVSNAKTLADGVPSRFGGSGSGTQYSLKINSLQPEDFGSYYCQHFWITPPTFGAGTRLEIKR
reportedMeasurement: 22
//
binder: CD8B350 (antibody, human IgG1, kappa, V domains shown, full-length human IgG1, kappa) VH: EVQLQQSGAELAKPGTSVKMSCKASGYTFAAYWINWLKQRPGQGLEWIGSINPSNGYTEYSQKFKDKAILTADKSSSTAYMQLSSLTSEDSAVYYCSRSGLYYTNHLAWCPYWGQGTTVTVSS VL: DIVMTQSPASLSASVGETVTITCRASGNIHNYLAWYQQKQGKSPQVLVYNAETLADSVPSRFSGSGSGTQFSLKINSLQPEDFGNYYCQHFWNSPLTFGGGTKLEIKR
reportedMeasurement: 537
//
binder: CD8B251 (antibody, human IgG1, kappa, V domains shown, full-length human IgG1, kappa) VH: QVQLKGSGPGLVQPSQSLSITCTVSGFSLTTYAVHWVRQSPGKGLEWLGVIWSGGSTDYNAAFISRLSISKDNSKSQVFFKMNSLQADDTAIYYCARHSYYHYNAMDNWGQGTSVTVSS VL: DIKMTQSQKFMSTTVGDRVSITCKASQNVGTAVAWYQQKPGQSPKLLIYSASNRYTGVPDRFTGSGSGTDFTLTISNMQSEDLADYFCQQYSSYPFTFGSGTKLEIKR
reportedMeasurement: 37
//
binder: CD8B271 (antibody, human IgG1, kappa, V domains shown, full-length human IgG1, kappa) VH: DVQLQESGPGLVAPSQSLSITCTVSGFSLSIYSIHWVRQPPGKGLEWLGMIWGGGDTDYNSALKSRLSISKDNSESQVFLKMNSLQTDDTAMYYCARNPHYYGGTYEYFDVWGTGTTVTVSS VL: DIQMTQTTSSLSASLGDRVTISCSASQGISNYLNWYQQKPDGTVKLLIYDTSILYSGVPSRFSGSGSGTDYSLTISNLEPEDVATYYCQQYSNLPYTFGSGTKLEIKR
reportedMeasurement: 911
//
binder: CD8B362 (antibody, human IgG1, kappa, V domains shown, full-length human IgG1, kappa) VH: EVKLVESGAELVKPGASVKLSCTASGFNIKDTYMHWVKQRPEQGLEWIGRIDPANGHTKFDPKFQGKATITADTSSNTAYLQLSSLTSEDTAVYYCAIRFAYWGQGTLVTVSA VL: DIQMTQSPSSLSASLGDRVSLTCRASHEISGYLSWLQQKPDGTFKRLIYAASTLDSGVPKRFSGSRSGSDYSLSISSLESEDFADYYCLQYSSYPYTFGSGTKLEMKR
reportedMeasurement: 4
//
binder: CD8B248 (antibody, human IgG1, kappa, V domains shown, full-length human IgG1, kappa) VH: EVQLQQSGAELARPGASVKMSCKASGYTFTTYTMHWVKQRPGQGLEWIGYINPSSGYTKYNQKFTDKATLTADKSSSTAYMQLSSLTSEDSAVYYCARLWAYWGQGTLVTVSA VL: DVVMTQTPLSLPVSLGDQASISCRSSQSLVHSSGNTYLHWYLQKPGQSPKLLIYKGSNRFSGVSDRFSGSGSGTDFTLKISRVEAEDLGVYFCSQSTHVPFTFGSGTKLEMKR
reportedMeasurement: 20
//
binder: CD8B245 (antibody, human IgG1, kappa, V domains shown, full-length human IgG1, kappa) VH: EFQLQQSGGGLVQPGGSLSLSCAAPGFTFTDYYMSWVRQSPGKALEWLALSRNKGNGYTTEYSASVKGRFTISRDNSQSILYLQMNVLRAEDSATYYCARTVTGTLFYYALDYWGQGTTVTVSS VL: DIQMTQSPASLSASVGETVTITCRASENIYSYLAWYQQKQGKSPQFLVYNAKTLAAGVPSRFSGSGSGTQFSLKINRLQPEDFGTYYCQHHYGTPLTFGDGTRLEIKR
reportedMeasurement: 44
//
binder: CD8B250 (antibody, human IgG1, kappa, V domains shown, full-length human IgG1, kappa) VH: QVQLKESGPGLVAPSQSLSITCTVSGFSLSNYVVHWVRQSPGKGLEWLGVIWTDGSTDYNAAFISRLSISKDNSKSQVFFKMNSLQADDTAIYYCARNNGYFPAFFAYWGQGTLVTVSA VL: DIVMTQSQKFMSTSVGDRVSVTCKASQNVDTDITWYQQKPGQSPKALIYSASYRYSGVPDRFTGSGSGTDFTLTITNVQSEDLAEYFCQQYNSYPLTFGSGTKLEMKR
reportedMeasurement: 61
//
binder: CD8B364 (antibody, human IgG1, kappa, V domains shown, full-length human IgG1, kappa) VH: QVQLQQPGAELVKPGASVKLSCKASGYTFTSYWMHWVNRRPGQGLEWIGEINPSNGDSYYNEKFKRKATLTVDISSSTAYMQLSSLTSEDSAVYYCTRSMYYDGRAGAYWGQGTTVTVSS VL: DIVLTQSPASLSVATGEKVTIRCITSTDIDDDMNWYQQKPGEPPKLLISEGNTLRPGVPSRFSSSGYGTDFVFTIENTLSEDVADYYCLQSDNMPLTFGAGTKLELKR
reportedMeasurement: 1560
